Test system: HCT-116
Test: Cell viability assay (CCK-8)
Assay type: cell-based, Human
Conditions: Homo sapiens, HCT-116, 24 h
Measurement Name: pIC50
# reply with the number alone; pIC50 is -log10 of concentration in mol/L

Exam item: For the molecule COc1cc(/C=C/c2ccc(O)cc2)cc(OC)c1 [PTE, 3,5-dimethoxy-4′-hydroxy-trans-stilbene] , what pIC50 is on record?
Marked response: 4.51

* * *

Tested on: SW480
Assay: Cell viability assay (CCK-8)
Assay type: cell-based
Settings: Homo sapiens, SW480, 48 h
Measurement Name: pIC50
pIC50 here: minus log base 10 of the concentration, concentration in moles per litre.

Exam item: Provide value of pIC50 for this record tested with SW480: COc1cc(/C=C/c2ccc(O)cc2)cc(OC)c1 [PTE, 3,5-dimethoxy-4′-hydroxy-trans-stilbene]
Marked response: 4.45
